The values you see were collected from patent US7019144B2.

- test system: COX-2 (Mus musculus)
- Construct: host or cells: RAW 264.7 cells, aspirin-pretreated, then induced with interferon gamma and LPS
- assay explanation: Assay for the COX-2 inhibitory activity using RAW 264.7 cell line (PGE2, interferon γ/LPS induced)
- Assay type: cell-based
- experimental parameters: RAW264.7; 10 nM test compound; RAW 264.7 cells; interferon γ + LPS, 18 hours; PGE2; read-out: Cyclooxygenase (COX) Inhibition (%) COX-2 (10 nM)
recorded endpoint: inhibition at 0.01 µM (%)
Expressed in %, but write only the number.

Exam item: # returns recorded inhibition at 0.01 µM (system: COX-2 (Mus musculus)) for COc1ccc(-c2nc(C(F)(F)F)nn2-c2ccc(S(C)(=O)=O)nn2)cc1
Marked response: 4.32

----------
Parameter inhibition at 1 µM: see the listing below.
- test system: COX-1 (Homo sapiens)
- Construct: host or cells: U-937 human lymphoma cells
- assay explanation: Assay for the COX-1 inhibitory activity using U-937 (PGE2 inhibition)
- Type: cell-based
- experimental parameters: 1 μM test compound; U-937 human lymphoma cells; PGE2 inhibition vs DMSO; read-out: Cyclooxygenase (COX) Inhibition (%) COX-1 (1 μM)
Expressed in %, but write only the number.

[[record]]
smi = "CS(=O)(=O)c1ccc(-n2nc(C(F)(F)F)nc2-c2cccc(Br)c2)cc1"
recorded_measurement = 16.7

[[record]]
smi = "COc1ccc(-c2nc(C(F)(F)F)nn2-c2ccc(S(C)(=O)=O)cc2)c(OC)c1"
recorded_measurement = 19.9


# ---- query compound ----
Exam item: Query (compound): COc1ccc(-c2nc(C(F)(F)F)nn2-c2ccc(S(C)(=O)=O)nn2)cc1 ; field requested: inhibition at 1 µM
Marked response: 10.6

----------
Parameter inhibition at 0.01 µM: see the listing below.
- test system: COX-2 (Mus musculus, UniProt Q05769)
- Construct: host or cells: RAW 264.7 cells, aspirin-pretreated, then induced with interferon gamma and LPS
- Sequence (Q05769 18-604): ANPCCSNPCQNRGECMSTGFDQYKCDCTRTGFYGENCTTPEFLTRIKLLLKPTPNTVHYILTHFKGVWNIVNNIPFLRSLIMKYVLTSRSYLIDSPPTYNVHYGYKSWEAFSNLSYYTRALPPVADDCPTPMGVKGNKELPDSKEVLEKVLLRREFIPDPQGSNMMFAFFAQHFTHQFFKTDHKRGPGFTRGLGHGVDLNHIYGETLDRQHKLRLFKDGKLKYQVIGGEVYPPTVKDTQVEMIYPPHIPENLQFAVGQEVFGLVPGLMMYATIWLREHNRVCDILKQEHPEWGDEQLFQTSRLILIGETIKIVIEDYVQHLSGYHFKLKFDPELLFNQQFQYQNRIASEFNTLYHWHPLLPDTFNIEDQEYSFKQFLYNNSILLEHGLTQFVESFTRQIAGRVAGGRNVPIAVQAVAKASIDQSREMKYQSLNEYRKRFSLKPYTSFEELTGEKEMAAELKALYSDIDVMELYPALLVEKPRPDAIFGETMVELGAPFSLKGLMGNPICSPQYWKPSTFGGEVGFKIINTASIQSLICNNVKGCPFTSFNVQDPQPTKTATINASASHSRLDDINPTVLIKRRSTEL
- assay explanation: Assay for the COX-2 inhibitory activity using RAW 264.7 cell line (PGE2, interferon γ/LPS induced)
- Type: cell-based
- experimental parameters: RAW264.7; 10 nM test compound; RAW 264.7 cells; interferon γ + LPS, 18 hours; PGE2; read-out: Cyclooxygenase (COX) Inhibition (%) COX-2 (10 nM)
Write down the value, and be sure its unit follows.

[[record]]
smi = "COc1ccc(-c2nc(C(F)(F)F)nn2-c2ccc(S(C)(=O)=O)cc2)c(OC)c1"
recorded_endpoint = "inhibition at 0.01 µM"
recorded_measurement = "12.6%"

[[record]]
smi = "COc1ccc(-c2nc(C(F)(F)F)nn2-c2ccc(S(C)(=O)=O)cc2)cc1Cl"
recorded_endpoint = "inhibition at 0.01 µM"
recorded_measurement = "32.6%"

[[record]]
smi = "Cc1ccc(-c2nc(C(F)(F)F)nn2-c2ccc(S(N)(=O)=O)cc2)cc1"
recorded_endpoint = "inhibition at 0.01 µM"
recorded_measurement = "12.1%"


Exam item: Query (compound): COc1ccc(/C=C/c2nc(C(F)(F)F)nn2-c2ccc(S(C)(=O)=O)cc2)cc1 ; field requested: inhibition at 0.01 µM
Marked response: 26.8%

----------
- test system: COX-1 (Homo sapiens, UniProt P23219)
- Construct: host or cells: U-937 human lymphoma cells
- Sequence (P23219 24-599): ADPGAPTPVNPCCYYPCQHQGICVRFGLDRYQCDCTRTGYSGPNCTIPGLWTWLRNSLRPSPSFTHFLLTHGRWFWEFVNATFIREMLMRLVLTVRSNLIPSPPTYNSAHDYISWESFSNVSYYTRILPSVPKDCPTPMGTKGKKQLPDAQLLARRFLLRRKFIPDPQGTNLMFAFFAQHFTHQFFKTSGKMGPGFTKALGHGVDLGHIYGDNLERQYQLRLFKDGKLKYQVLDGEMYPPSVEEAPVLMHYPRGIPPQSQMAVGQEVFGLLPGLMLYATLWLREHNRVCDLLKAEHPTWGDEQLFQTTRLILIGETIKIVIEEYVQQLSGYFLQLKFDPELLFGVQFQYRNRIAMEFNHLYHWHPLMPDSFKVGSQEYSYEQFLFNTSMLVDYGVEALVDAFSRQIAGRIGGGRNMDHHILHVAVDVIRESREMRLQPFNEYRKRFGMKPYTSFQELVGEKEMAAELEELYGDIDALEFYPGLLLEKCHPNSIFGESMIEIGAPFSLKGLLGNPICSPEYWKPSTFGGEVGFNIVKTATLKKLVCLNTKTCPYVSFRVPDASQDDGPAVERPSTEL
- assay explanation: Assay for the COX-1 inhibitory activity using U-937 (PGE2 inhibition)
- Assay type: cell-based
- experimental parameters: 1 μM test compound; U-937 human lymphoma cells; PGE2 inhibition vs DMSO; read-out: Cyclooxygenase (COX) Inhibition (%) COX-1 (1 μM)
- Description: The collected cells were diluted with HBSS (×1, Hank's balanced salt solution) to a concentration of 1×10^6 cells/ml. 1 ml of the dilute cell solution was placed into each well of 12-well plates. […] The concentration of PGE2 in the collected cells and the supernatant was quantified by means of a monoclonal kit (Cayman Chemicals). The percentages of PGE2 inhibition in a group of the test compound-treated cells in relation to a group of the DMSO-treated cells were calculated. […]
Parameter inhibition at 1 µM: see the listing below.
Expressed in %, but write only the number.

Example entries and their recorded answers appear below.
[[record]]
molecule = "COc1ccc(-c2nc(C(F)(F)F)nn2-c2ccc(S(C)(=O)=O)cc2)cc1Cl [Example 39]"
recorded_endpoint = "inhibition at 1 µM"
units = "%"
recorded_measurement = 12.5

[[record]]
molecule = "CS(=O)(=O)c1ccc(-n2nc(C(F)(F)F)nc2-c2ccc(Br)cc2)cc1 [Example 27]"
recorded_endpoint = "inhibition at 1 µM"
units = "%"
recorded_measurement = 13.8

[[record]]
molecule = "CS(=O)(=O)c1ccc(-n2nc(C(F)(F)F)nc2-c2ccc(C#N)cc2)cc1 [Example 37]"
recorded_endpoint = "inhibition at 1 µM"
units = "%"
recorded_measurement = 23.7

[[record]]
molecule = "CS(=O)(=O)c1ccc(-n2nc(C(F)(F)F)nc2-c2ccc(Br)cc2)cn1 [Example 47]"
recorded_endpoint = "inhibition at 1 µM"
units = "%"
recorded_measurement = 21.9

[[record]]
molecule = "CS(=O)(=O)c1ccc(-n2nc(C(F)(F)F)nc2-c2ccc([N+](=O)[O-])cc2Cl)cc1 [Example 38]"
recorded_endpoint = "inhibition at 1 µM"
units = "%"
recorded_measurement = 19.5


Exam item: # returns recorded inhibition at 1 µM (system: COX-1 (Homo sapiens, UniProt P23219)) for COc1ccc(-c2nc(C(F)(F)F)nn2-c2ccc(S(C)(=O)=O)cc2)cc1 [Example 28]
Marked response: 10.1

Exam item: # returns recorded inhibition at 1 µM (system: COX-1 (Homo sapiens, UniProt P23219)) for CCOc1ccc(-c2nc(C(F)(F)F)nn2-c2ccc(S(C)(=O)=O)cc2)cc1 [Example 35]
Marked response: 11.8
